The reported measurements were obtained from PubChem BioAssay (NCI).

- Test system: HOP-92 NSCLC
- measurement description: NCI tumour cell line growth inhibition, 48 h
property name: TGI (µM)
Give bare numbers, in µM.

Oc1ccc(CNCc2ccccc2)c2cccnc12 ... 0.57
NC1=C(Cl)C(=O)c2ccc(S(N)(=O)=O)cc2C1=O ... 3.73

Okay, now this molecule:
Ask: TGI for Cn1c(=O)c2c(no[n+]2[O-])n(C)c1=O ?
Reply: 44.1

----------
- Tested on: NCI-H23 lung
- measurement description: NCI tumour cell line growth inhibition, 48 h
Answer each item with its documented TGI.

Please report TGI for every entry that follows.
1. CC1(C)CCC2(C(=O)OC3OC(CO)C(O)C(O)C3O)CCC3(C)C(=CCC4C5(C)CCC(OC6OC(CO)C(O)C(O)C6O)C(C)(C)C5CCC43C)C2C1 (stereo not given)
2. NCC#CCNCCCN1CC1
3. c1ccc(C2C3=C(CCCC3)Nc3nc4cc5ccccc5cc4n32)cc1 (stereo not given)
4. Nc1ncnc2c1nc(-c1ccccc1)n2C1OC(CO)C(O)C1O (stereo not given)
5. Oc1c2cc(Br)cc1CCc1cc(Br)cc(c1O)CC2

Reply:
> 25 µM
> 100 µM
> 100 µM
> 100 µM
> 100 µM

----------
- Test system: TK-10 renal
- measurement description: NCI tumour cell line growth inhibition, 48 h
*1 amine or outer side, *2 acyl side, *3 side chain or, on linkers, in order; H or OH if unused. Where a SMILES comes first, the peptide text is derived from it. Bridges are numbered along the chain shown (N, C = ends). Roman numbers before positions name the chains, in order. [ ]: non-standard residue; d: D form. Actinocin(9to1) = Cc1c2oc3c(C)ccc(C(=O)[*:1])c3nc-2c(C(=O)[*:2])c(N)c1=O; X48 = O=C1CC(C(=O)[*:2])N([*:1])C1; NMeV = CN[CH](C(=O)O)C(C)C; Sar = CNCC(=O)O
property name: TGI

Worked set:
O=C(O)CC(Nc1ccccc1)C(=O)O (configuration not stated) ... > 100 µM
COc1ccc(-c2cnc3ccnn3c2-c2cc(OC)c(OC)c(OC)c2)cc1 ... > 100 µM
Cc1oc2c(C)c(O)c3c(c2c1C1(C)OCCO1)C(=O)C=C(Cl)C3=O ... > 100 µM
COc1ccc(N=c2ssc(C(=S)Nc3ccc(OC)cc3)c2S)cc1 ... > 100 µM
COC(=O)C[C@@H]1C(C)(C)[C@@H]2O[C@@]34C[C@@H]2C(=O)[C@]1(C)[C@H]3CC[C@@]1(C)[C@H](c2ccoc2)OC(=O)C[C@]14O ... > 100 µM

Please report TGI for every entry that follows.
1. COC(=O)C1(C(=O)OC)CC2c3c(c4ccccc4n3C)CC(C1=O)N2Cc1ccccc1 (configuration not stated)
2. CN[C@]12CC3(C=CC(=O)C=C3)O[C@@]1(Cc1ccc(OC)cc1)N(C)C(=O)N2
3. COc1ccc(-c2cc(=O)c3c(OC)c(OC)c(OC)c(OC)c3o2)cc1OC
4. Cc1c2oc3c(C)ccc(C(=O)NC4C(=O)NC(C(C)C)C(=O)N5CC(=O)CC5C(=O)N(C)CC(=O)N(C)C(C(C)C)C(=O)OC4C)c3nc-2c(C(=O)NC2C(=O)NC(C(C)C)C(=O)N3CC(=O)CC3C(=O)N(C)CC(=O)N(C)C(C(C)C)C(=O)OC2C)c(N)c1=O (configuration not stated) (I: TV[X48][Sar][NMeV] / II: TV[X48][Sar][NMeV]; ester I:1-I:C, II:1-II:C; linker I:N-II:N via Actinocin(9to1); configuration not given here)
5. CCCCCCCCCCCCn1c(=O)cc(NCCCC)c2cc3c(NCCCC)cc(=O)n(CCCCCCCCCCCC)c3nc21
6. Clc1cc(Cl)c(Cl)c(-c2nc(-c3cccnc3)cs2)c1

Reply:
1. > 100 µM
2. 6.72 µM
3. > 100 µM
4. > 1 µM
5. > 100 µM
6. 56.6 µM

Please report TGI for every entry that follows.
1. CCOC(=O)/C(=C/c1ccc([N+](=O)[O-])cc1)C(=O)c1ccccc1
2. CC1(C)CC[C@]2(C(=O)O)CC[C@]3(C)C(=CC[C@@H]4[C@@]5(C)C[C@H](O)[C@H](O)[C@@](C)(CO)C5=CC[C@]43C)[C@@H]2C1
3. CCOc1ccccc1N=Nc1c(-c2ccccc2)nn(C(=O)CC(=O)Nc2cccc(Cl)c2)c1-c1ccccc1

Reply:
6.54 µM
> 100 µM
> 100 µM
